assay: NCI Yeast Anticancer Drug Screen. Data for the sgs1 mgt1 strain (AID 161);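 also: 0% = growth of cultures given vehicle only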; conditions: S. cerevisiae sgs1 mgt1 strain, at 50.0 µM, stronger effect = higher value
About 79,000 compounds went through this panel and 15% of them were active in at least one assay; those are over-represented in the sample as a whole.
Listing of recorded growth inhibition by entry.

{"compound": "O=C(N1CCCC1)C1(c2cccc(Cl)c2)CCNCC1", "growth inhibition / %": -16.2}
{"compound": "CCC1(CC)C(=O)NC(=O)N(C)C1=O", "growth inhibition / %": 31.5}
{"compound": "CCNCCC1(CC)C(=O)NC(=O)NC1=O", "growth inhibition / %": -27.4}
{"compound": "N#CC1CC[CH-]CC1.[Cl-].[Cl-].[Cl-].[Cl-].[Cl-].[Sb+5].c1ccncc1", "growth inhibition / %": 99.3}
{"compound": "COc1ccccc1NC1=NCC(C)S1 (stereo unspecified)", "growth inhibition / %": -52}
{"compound": "[Br][Ni][Br].c1ccc([PH+](CC[PH+](c2ccccc2)c2ccccc2)c2ccccc2)cc1", "growth inhibition / %": -23.8}
{"compound": "[C-]#[O+].[C-]#[O+].[CH3][Sn]([CH3])[c]1ccccc1.[Fe+5].[c-]1[c-][c-][cH-][c-]1", "growth inhibition / %": 94.7}
{"compound": "Oc1ccc(CCNCc2cc3c(cc2Br)OCO3)cc1", "growth inhibition / %": -11.1}
{"compound": "O=C(Cc1ccccc1)OC1CCCC1", "growth inhibition / %": -7.15}
{"compound": "N#Cc1ccc(N)cc1", "growth inhibition / %": -37.5}
{"compound": "O=C1C2C(C(=O)N1c1ccc(Cl)c(Cl)c1)C1(Cl)C(Cl)=C(Cl)C2(Cl)C1(Cl)Cl (stereo unspecified)", "growth inhibition / %": 96.1}

###

test: NCI Yeast Anticancer Drug Screen. Data for the rad50 strain (AID 155);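 also: 0% = growth of vehicle-only cultures of the same strain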; details: S. cerevisiae rad50 strain growth inhibition; at 50.0 µM
Compounds without any hit were thinned out: in the full panel of roughly 79,000, 15% have a hit. Active and inactive are the calls of the source. No stated cut-off is given here; in the data, active means growth inhibition above about 70%; inactive means the rest.
Labels: TRUE (active), FALSE (inactive)

{"molecule": "Brc1ccc2nncc(N3CC3)c2c1", "assigned category": "FALSE"}
{"molecule": "CC[C@@H](C)[C@@H]1NC(=O)C(NC(=O)C(CC(C)C)N(C)C(=O)C2CCCN2C(=O)C(C)O)C(C)OC(=O)C(Cc2ccc(OC)cc2)N(C)C(=O)C2CCCN2C(=O)C(CC(C)C)NC(=O)C(C)C(=O)C(C(C)C)OC(=O)C[C@H]1O (some centres not stated)", "assigned category": "TRUE"}
{"molecule": "CCCC1(CCS)C(=O)NC(=O)NC1=O", "assigned category": "FALSE"}
{"molecule": "NCC1OC(OC2C(CO)OC(OC3C(O)C(N)CC(N)C3OC3OC(CN)C(O)C(O)C3N)C2O)C(N)C(O)C1O (configuration not stated)", "assigned category": "FALSE"}
{"molecule": "CCOC(=O)C(Br)Br", "assigned category": "FALSE"}
{"molecule": "COP(=O)(OC)C(=O)c1ccccc1", "assigned category": "FALSE"}
{"molecule": "COc1ccc(CC(N)c2ccccc2)cc1OC (configuration not stated)", "assigned category": "FALSE"}
{"molecule": "CC(=O)OCC1(N2CCCC2)CCCCC1", "assigned category": "FALSE"}
{"molecule": "O=C1CC23c4ccccc4N4C(=O)CC5OCC=C6CN1C2CC6C5C43 (configuration not stated)", "assigned category": "FALSE"}
{"molecule": "[CH3][Sb]([CH3])[S]C1OC(CO)C(O)C(O)C1O (configuration not stated)", "assigned category": "FALSE"}
{"molecule": "C[N+](CCCl)(CCCl)Cc1cc([N+](=O)[O-])cc([N+](=O)[O-])c1", "assigned category": "FALSE"}
{"molecule": "COP(=O)(OC)/C(=C/c1c[nH]c2ccccc12)C(=O)O", "assigned category": "FALSE"}
